B1: HDV Ribozyme (parent)
chain: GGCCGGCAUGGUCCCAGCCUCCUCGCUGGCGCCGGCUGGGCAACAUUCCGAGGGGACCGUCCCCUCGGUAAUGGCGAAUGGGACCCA

Variants of: B1
Experiment: self-cleavage, relative activity (ratio to wild type); higher = more cleavage; co-transcriptional
readoutType: self-cleavage
Number only, no unit.

// known answers, use as guide
[
  {
    "variantDescriptor": "C4U G80U",
    "readoutValue": 0.0683
  },
  {
    "variantDescriptor": "C18A C62G",
    "readoutValue": 0.135
  },
  {
    "variantDescriptor": "A45G C61U",
    "readoutValue": 0.888
  },
  {
    "variantDescriptor": "C21A A42C",
    "readoutValue": 0.0437
  },
  {
    "variantDescriptor": "C15U C84A",
    "readoutValue": 0.81
  },
  {
    "variantDescriptor": "C4U A16C",
    "readoutValue": 0.434
  },
  {
    "variantDescriptor": "C33U U47A",
    "readoutValue": 0.872
  },
  {
    "variantDescriptor": "G6U U23C",
    "readoutValue": 0.312
  },
  {
    "variantDescriptor": "U20G C58A",
    "readoutValue": 0.266
  },
  {
    "variantDescriptor": "G6U C15U",
    "readoutValue": 0.646
  }
]

Item G5A A43U : provide self-cleavage 0.089

Item C58U C85G : provide self-cleavage 1.07

Item G29U G52C : provide self-cleavage 0.0268

Item G38U C58A : provide self-cleavage 0.164

Item C36A U60A : provide self-cleavage 0.198

Item C62G C63A : provide self-cleavage 0.639

Item C30A G34C : provide self-cleavage 0.119

Item U60C U69G : provide self-cleavage 0.95

Item C48A G55C : provide self-cleavage 1.06

Item C18A G74U : provide self-cleavage 0.0528
